PROTOCOL_SUMMARY: Cumulative urinary excretion after single oral administration of A. paniculata aqueous extract capsules in healthy participants
Type: in vivo, human
CONDITION: single oral dose equivalent to 120 mg andrographolide, urine T 0–48 h, n = 11, mean ± SD
Reported Cumulative urine values follow for various compounds

- COMPOUND: "C=C1CC[C@@H]2[C@](C)(CO[C@@H]3O[C@H](CO)[C@@H](O)[C@H](O)[C@H]3O)CCC[C@@]2(C)[C@@H]1CCC1=CCOC1=O [Neoandrographolide, neoandrographolide]"
  Cumulative urine / µg: 66.7
- COMPOUND: "C=C1CCC2C(C)(CO)C(O)CCC2(C)C1C=CC1=CCOC1=O (stereo not shown) [14-Deoxy-11,12-didehydroandrographolide, 14-deoxy-11, 12-didehydroandrographolide]"
  Cumulative urine / µg: 159
- COMPOUND: "C=C1CC[C@@H]2[C@](C)(CO)[C@H](O)CC[C@@]2(C)[C@@H]1CCC1=CCOC1=O [14-Deoxyandrographolide, 14-deoxyandrographolide]"
  Cumulative urine / µg: 199
